Recorded pKd by entry
target: T1, postfusion RSV F ectodomain, subtype B (respiratory syncytial virus subtype B); assay: BLI, IgG on sensor
T1 construct: extracellular domain; also called Postfusion subtype B
T1 sequence (P13843 26-109, chain 1 of 2): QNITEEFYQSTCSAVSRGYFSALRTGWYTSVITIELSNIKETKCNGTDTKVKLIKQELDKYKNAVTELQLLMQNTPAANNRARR
T1 sequence (P13843 147-513, chain 2 of 2): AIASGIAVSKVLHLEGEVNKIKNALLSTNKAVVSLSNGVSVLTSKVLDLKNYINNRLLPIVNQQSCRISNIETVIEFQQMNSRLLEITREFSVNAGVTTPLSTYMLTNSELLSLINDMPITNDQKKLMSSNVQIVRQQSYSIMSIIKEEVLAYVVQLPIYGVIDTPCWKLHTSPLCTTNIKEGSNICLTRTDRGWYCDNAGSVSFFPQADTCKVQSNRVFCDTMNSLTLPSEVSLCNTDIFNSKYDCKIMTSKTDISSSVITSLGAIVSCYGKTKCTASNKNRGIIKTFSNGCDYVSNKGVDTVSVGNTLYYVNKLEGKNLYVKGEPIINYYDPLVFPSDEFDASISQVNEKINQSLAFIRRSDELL
When answering, recall that pKd equals minus log10 of the concentration in mol/L, and write that number alone.

Data request, read-out pKd, for ADI-15666 (antibody, V domains shown, IgG; also called Antibody Number 230) VH: QVQLQQWGAGLLKPSETLSLTCGVSDGSFSAYYWNWIRQSPGKGLEWIGETNPSENTNYSPSLKNRVTISADRSANQFSLRLRSVTAADTGVYYCARGRGYYGSTTDYRGLHWFDPWGQGTLVTVSS VL: ETTLTQSPVTLSVSPGERATLSCRASQSVSFNLAWYQQKPGQAPRLLIYGASTRVTNLPLRFSGSGSGTEFTLTISSLQSEDFAVYYCQQYNNWPRTFGQGTKLEIK
9.26

Next:
Data request, read-out pKd, for ADI-15006 (antibody, V domains shown, IgG; also called Antibody Number 125) VH: EVQLVESGPGLVKPSGTLSLTCTVSGDSMSDYYWSWIRQSPGRGLEWLGYIYYDGSTNYNPSLKGRGTISIDTSKSQFSLTLSSVKAADTAVYYCARGKYYDRGGYYLFYLDYWGQGILVTVSS VL: DIRLTQSPSSLSASVGDRVTITCRASQTIASYVNWYQQKPGKAPKLLIYAASSLQDGVPSRFSGSGSGTDFALTISSLQPEDFAIYFCQQSYSTPIFTFGPGTKVEIK
8.44

Same question, ADI-15653 (antibody, V domains shown, IgG) VH: QVQLVQSGAEVKKPGSSVKVSCKSSGGTFSNYIISWVRQAPGQGLEWMGGIVPLSGTTDYAQKFQGRVTITADKSTTTAYMELRTLRPEDTAVYYCARGSGGSNAYFDPWGQGTLVTVSS VL: QSVVTQPPSVSVAPGKTAKITCGGNNIGSKSVYWYQQKPGQAPVLVMYYDTYRPSGIPERFSGSNSGNSATLTISRVDAGDEADYYCQVWDSRSDHPYVFGSGTKLTVL this time
9.41
